# measured-target: GDP-bound KRAS wild-type protein (Homo sapiens)
# Sequence (P01116 whole entry): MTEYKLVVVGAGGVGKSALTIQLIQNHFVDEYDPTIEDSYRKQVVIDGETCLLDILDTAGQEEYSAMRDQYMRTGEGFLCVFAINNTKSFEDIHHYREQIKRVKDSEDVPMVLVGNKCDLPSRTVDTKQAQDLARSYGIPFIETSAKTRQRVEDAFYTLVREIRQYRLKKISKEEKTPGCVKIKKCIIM
# procedure-summary: Binding to KRAS by surface plasmon resonance (SPR), Single Cycle Kinetics
# condition-info: SPR Single Cycle Kinetics, GDP-bound KRAS wild-type protein, 1:1 binding model; read-out: KRAS KD
Where a SMILES comes first, the peptide text is derived from it. Bridges are numbered along the chain shown (N, C = ends). [ ]: non-standard residue; d: D form. The star is where a group is joined. hPhe(3-Cl-4-CF3) = N[C@@H](CCc1ccc(C(F)(F)F)c(Cl)c1)C(=O)O; NMePhe(4-Me) = CN[C@@H](Cc1ccc(C)cc1)C(=O)O; NMeGly(cPent) = CN[C@H](C(=O)O)C1CCCC1; NMeD = CN[C@@H](CC(=O)O)C(=O)O; NMeL = CN[C@@H](CC(C)C)C(=O)O; Morpholide = C1CN(*)CCO1; Ac5c = NC1(C(=O)O)CCCC1; NEtG = CCNCC(=O)O; Sar = CNCC(=O)O
measurement-type: Kd (nM)
Answers are plain numbers, in nM.

Q: # query: Kd | item CC[C@H](C)[C@@H]1NC(=O)[C@H](CC(C)C)N(C)C(=O)C[C@@H](C(=O)N2CCOCC2)N(C)C(=O)[C@H](C2CCCC2)N(C)C(=O)C2(CCCC2)NC(=O)[C@@H]2CCCN2C(=O)[C@H](CCc2ccc(C(F)(F)F)c(Cl)c2)NC(=O)CN(C)C(=O)[C@H](Cc2ccc(C)cc2)N(C)C(=O)CN(CC)C(=O)CN(C)C1=O [PP0019] ([NMeL]I[Sar][NEtG][NMePhe(4-Me)][Sar][hPhe(3-Cl-4-CF3)]P[Ac5c][NMeGly(cPent)][NMeD]-Morpholide; lactam N-11) | system: GDP-bound KRAS wild-type protein (Homo sapiens)
A: 0.34

Taken from patent US20240158446A1.
